Target: T1, WT Rad9A 94-266 (Homo sapiens, UniProt Q99638 94-266)
T1 sequence: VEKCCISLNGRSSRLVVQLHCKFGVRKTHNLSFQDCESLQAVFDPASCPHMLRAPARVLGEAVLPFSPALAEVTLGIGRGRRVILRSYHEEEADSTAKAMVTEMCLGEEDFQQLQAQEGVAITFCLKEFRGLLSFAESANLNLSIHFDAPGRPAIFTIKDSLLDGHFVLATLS
Assay: EMSA; EMSA: 20 mM Tris-HCl pH 7.6, 80 mM NaCl, 1 mM DTT, 1 mM EDTA, 1.5% glycerol, 200 ng/ml poly dI/dC, 50 ug/ml BSA, 10 nM DNA; 6% native PAGE in 50 mM Tris-borate
Details: protein: recombinant; tags: His; label: 5'-fluorescein (6-carboxyfluorescein) on HC40; blunt
property.name: Kd (µM)

binder | observed
HC40/HG40 (dsDNA) DNA 1: CCGAGGAATTCGCCTTCTGCTCCATAGCCACTGGTTGTAG DNA 2: CTACAACCAGTGGCTATGGAGCAGAAGGCGAATTCCTCGG | 1.5

// provenance: paper PMC9359528
